- target entity: Protein kinase C (PKC) (Homo sapiens) (UniProt O94806+P41743+P17252+P05129+Q05655+P05771+Q05513+Q02156+P24723+Q15139+Q04759)
- assay overview: Inhibition of PKC-mediated phosphorylation of neurogranin at 100 uM
- Type: protein assay
Activity calls are given as the source filed them. The calls are words filed in the database; no cut-off is given here.
measured attribute: Activity

The cases that follow already have their Activity on record.
| compound smiles | Activity |
| --- | --- |
| CCc1cccc2c1CNc1c(cccc1CCc1ccccc1)/C=C\2COc1ccc(OC)cc1 | inactive |
| CCc1cccc2c1CNc1c(cccc1CCc1ccccc1)/C=C\2COc1cccc(C(=O)OC)c1 | inactive |
| CCc1cccc2c1CNc1c(cccc1CCc1ccccc1)/C=C\2COc1ccccc1OC | inactive |
| CCc1cccc2c1CNc1c(cccc1CCc1ccccc1)/C=C\2COc1cccc([N+](=O)[O-])c1 | inactive |
| CCc1cccc2c1CNc1c(cccc1CCc1ccccc1)/C=C\2COc1ccc(Cl)cc1 | inactive |
| CCc1cccc2c1CNc1c(cccc1CCc1ccccc1)/C=C\2COc1cccc(C(F)(F)F)c1 | inactive |

Would you mind giving Activity for every molecule in the list below?
1. CCc1cccc2c1CNc1c(cccc1CCc1ccccc1)/C=C\2COc1cccc(F)c1
2. CCc1cccc2c1CNc1c(cccc1CCc1ccccc1)/C=C\2COc1ccc([N+](=O)[O-])cc1
3. CCc1cccc2c1CNc1c(cccc1CCc1ccccc1)/C=C\2COc1ccccc1NC(C)=O
4. CCc1cccc2c1CNc1c(cccc1CCc1ccccc1)/C=C\2COc1ccccc1Cl

inactive
inactive
inactive
inactive
